test system: HMLER-shEcad cells; assay: MTT cytotoxicity assay, breast CSCs; format: cell-based, human; conditions: 72 h incubation
endpoint name: IC50 (µM)
Answers are plain numbers, in µM.

# compound, IC50 [µM]
data = [
    ("COc1ccc2cc(C(C)C(=O)[O-])ccc2c1.[Cu+].c1ccc(P(c2ccccc2)c2ccccc2)cc1.c1ccc(P(c2ccccc2)c2ccccc2)cc1 [compound 2, [Cu^I(naproxen)(PPh3)2]]", 4.46),
    ("O=C([O-])Cc1ccccc1Nc1c(Cl)cccc1Cl.[Cu+].c1ccc(P(c2ccccc2)c2ccccc2)cc1.c1ccc(P(c2ccccc2)c2ccccc2)cc1 [compound 1, [Cu^I(diclofenac)(PPh3)2]]", 4.61),
]

Lookup: Dear colleague, I am looking for the recorded IC50 of the following compound: O=C([O-])c1ccccc1O.[Cu+].c1ccc(P(c2ccccc2)c2ccccc2)cc1.c1ccc(P(c2ccccc2)c2ccccc2)cc1 [compound 3, [Cu^I(salicylate)(PPh3)2]]
Found: 4.55
